I'd appreciate it if you could supply Swelling Ratio (average value ± standard variation) values for the items below.
Tested on: adjuvant arthritis
experiment summary: Test 2: Adjuvant Arthritis Test
Assay type: in vivo, SD male rats
conditions: 18 days; rat, 5 mg/Kg subcutaneous, 9 times; left hind leg; * P<0.05, ** P<0.01; control 103.2 ± 9.7
Counter-ions that a name gives are not always drawn.
Give bare numbers, in %.

O=C(N1CCCCC1)N1CCN(c2ccccc2)CC1 [drawing 12]	56.1
CN1CCN(C(=O)N2CCCC2)CC1 [drawing 10]	61.7
CN1CCN(C(=O)N2CCCCC2)CC1 [drawing 11]	62.0

# ---- query molecule ----
Swelling Ratio (average value ± standard variation) for c1ccc([C@H]2CN3CCSC3=N2)cc1 [Levamisole.hydrochloride, reference compound] ?
69.3

----------
Record form. Attribute: D: average diameter of tumor. Fill in for each entry.
Test system: Sarcoma 180
experiment summary: Test 4: Test of Antitumor Effect to Sarcoma 180 by Oral Administration
Type: in vivo, ICR female mice
conditions: 10 weeks; 100 mg/Kg oral once a day, 10 days; control 37.6
Where a name gives a salt, the structure may show the parent alone.
Answers are plain numbers, in mm.

The following molecules each have a reported value; give each one's D: average diameter of tumor.
1. O=C(N1CCCCC1)N1CCN(c2ccccc2)CC1 [drawing 18]
2. CN1CCN(C(=O)N2CCCC2)CC1 [drawing 16]

1: 0; 2: 0

Give me D: average diameter of tumor for each of these molecules, listed below.
1. c1ccc([C@H]2CN3CCSC3=N2)cc1 [Levamisole.hydrochloride, reference compound]
2. CN1CCN(C(=O)N2CCCCC2)CC1 [drawing 17]

1: 28.1; 2: 0

----------
Exercise: state measured D: average diameter of tumor for each of the compounds provided.
System: Sarcoma 180
experiment summary: Test 4: Test of Antitumor Effect to Sarcoma 180 by Oral Administration
Format: in vivo, ICR female mice
conditions: 6 weeks; 100 mg/Kg oral once a day, 10 days; control 22.4
Counter-ions that a name gives are not always drawn.
Give bare numbers, in mm.

Worked examples, 3 compounds total:
CN1CCN(C(=O)N2CCCC2)CC1 [drawing 16]	5.5
CN1CCN(C(=O)N2CCCCC2)CC1 [drawing 17]	4.8
c1ccc([C@H]2CN3CCSC3=N2)cc1 [Levamisole.hydrochloride, reference compound]	20.7

Now for the compound whose D: average diameter of tumor we want.
Which measured D: average diameter of tumor belongs to O=C(N1CCCCC1)N1CCN(c2ccccc2)CC1 [drawing 18] , tested on Sarcoma 180?
4.4

----------
Test system: adjuvant arthritis
experiment summary: Test 2: Adjuvant Arthritis Test
Type: in vivo, SD male rats
conditions: 21 days; rat, 5 mg/Kg subcutaneous, 9 times; left hind leg; * P<0.05, ** P<0.01; control 107.5 ± 13.3
Counter-ions that a name gives are not always drawn.
Assignment: determine reported Swelling Ratio (average value ± standard variation) for the given compounds.
One number for each entry, in %.

Known Swelling Ratio (average value ± standard variation) results, listed for orientation:
CN1CCN(C(=O)N2CCCC2)CC1 [drawing 10]	73.3
CN1CCN(C(=O)N2CCCCC2)CC1 [drawing 11]	68.1
O=C(N1CCCCC1)N1CCN(c2ccccc2)CC1 [drawing 12]	74.4

Let us move to another entry and its Swelling Ratio (average value ± standard variation).
Which value of Swelling Ratio (average value ± standard variation) has been reported for c1ccc([C@H]2CN3CCSC3=N2)cc1 [Levamisole.hydrochloride, reference compound] in the records?
80.7

----------
What N: number of living mice was measured for each of the following?
Test system: Sarcoma 180
experiment summary: Test 5: Test of Carcinostatic Effect to Sarcoma 180 by Subcutaneous Administration
Type: in vivo, ICR female mice
conditions: 10 weeks; 20 mg/Kg subcutaneous; control 1
Counter-ions that a name gives are not always drawn.
Answers are plain numbers.

Record excerpt, results attached:
O=C(N1CCCCC1)N1CCN(c2ccccc2)CC1 [drawing 21]	6
CN1CCN(C(=O)N2CCCCC2)CC1 [drawing 20]	6
CN1CCN(C(=O)N2CCCC2)CC1 [drawing 19]	5

Record request: N: number of living mice value, item c1ccc([C@H]2CN3CCSC3=N2)cc1 [Levamisole.hydrochloride, reference compound]
2

----------
System: adjuvant arthritis
experiment summary: Test 2: Adjuvant Arthritis Test
Format: in vivo, SD male rats
conditions: 15 days; rat, 5 mg/Kg subcutaneous, 9 times; left hind leg; * P<0.05, ** P<0.01; control 84.4 ± 9.0
Structures can show the parent of a compound that is named as a salt.
Record form. Attribute: Swelling Ratio (average value ± standard variation). Fill in for each entry.

Answered examples (3):
CN1CCN(C(=O)N2CCCC2)CC1 [drawing 10]	54.6 ± 11.3%
O=C(N1CCCCC1)N1CCN(c2ccccc2)CC1 [drawing 12]	39.5 ± 11.7%
CN1CCN(C(=O)N2CCCCC2)CC1 [drawing 11]	49.4 ± 10.3%

We now examine a further compound.
Could you share which Swelling Ratio (average value ± standard variation) value was measured for c1ccc([C@H]2CN3CCSC3=N2)cc1 [Levamisole.hydrochloride, reference compound] ?
65.2 ± 5.9%
